Reported OD max values for a set of binders
# MEASUREMENT TARGET: T1, di cyNKG2D ECD Fc avi (cynomolgus, biotinylated at the avi-tag)
# T1 construct: Dimeric fusion of cynomolgus NKG2D ECD to the C-terminus of an avi-tagged human IgG1 Fc; also called recombinant cynomolgus NKG2D
# T1 sequence (chain, as listed by the source limits assumed): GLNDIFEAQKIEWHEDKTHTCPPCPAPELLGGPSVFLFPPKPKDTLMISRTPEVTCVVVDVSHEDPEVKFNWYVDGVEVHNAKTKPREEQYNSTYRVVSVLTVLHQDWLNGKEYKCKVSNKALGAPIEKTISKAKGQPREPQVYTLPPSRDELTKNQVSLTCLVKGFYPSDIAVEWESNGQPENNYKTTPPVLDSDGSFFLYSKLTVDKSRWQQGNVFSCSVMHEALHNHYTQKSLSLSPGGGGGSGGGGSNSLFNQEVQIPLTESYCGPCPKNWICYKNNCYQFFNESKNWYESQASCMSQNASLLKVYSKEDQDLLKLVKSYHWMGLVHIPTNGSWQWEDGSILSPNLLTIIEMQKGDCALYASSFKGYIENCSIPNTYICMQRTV
# EXPERIMENT: ELISA; biotinylated antigen on streptavidin plate
Answer with a number only, understood to be in OD.

Take a look at these entries with their results.
| BINDER | OD max / OD |
| --- | --- |
| anti-NKG2D antibody clone 320 (antibody, V domains shown, From transgenic rabbits; also called 320 IgG) VH: EVQLLESGGGLVQPGGSLRLSCATSGFTFSDYAMSWVRQAPGKGLEWVSYNSFSVGSTDYADSVKGRFTISRDNSKNTLYLQMNSLRAEDTAVYYCSKHSGNYYTGPFHYWGQGTLVTVSS VL: DIQLTQSPSFLSASVGDRVTITCRASQGISSYLAWYQQKPGKAPKLLIYAASSLESGVPSRFSGSGSGTDFTLTISSLQPEDFATYYCQQSYSTPITFGQGTRLEIK | 0.9 |
| anti-NKG2D antibody clone 013 (antibody, V domains shown, From transgenic rabbits) VH: EQSGGGAGGGLVKPGGSLELCCKASGFDFSIYWMSWVRQSPGKGLEWIGRIYGGSSDYTAYASWVNGRFTLSRDIDQSTGCLQLNSLTAADTAMYYCVRLNPSFSRSFDYWGQGTLVTVSS VL: DIQMTQSPSSVSASVGDRVTITCRASQGIFSWLVWYQQKPGKAPELLMYGASTLQSGVPSRFSGSGSGTDFTLTISSLQPEDFATYYCQQGYSTPYTFGQGTKVEIK | 1.5 |
| anti-NKG2D antibody clone 018 (antibody, V domains shown, From transgenic rabbits) VH: QQLEQSGGGLVTPGGSLKVCCKASGFDFTTYWMTWVRQAPEKGLEWIGCIHGGDSGATYYANWVNGRFTLSRDIDQSTGCLQLNSLTAADTAMYYCARPGYPSWSKTFDLWGQGTMVTVSS VL: DIQMTQSPSSLSASVGDRVTITCQASQDISNALNWYQQKPGKAPKLLIYAASTLQSGVPSRFSGSGSGTDFTLTISSLQPEDFATYYCQHSNSFPLTFGGGTKVEIK | 1.3 |
| anti-NKG2D antibody clone 230 (antibody, V domains shown, From transgenic rabbits) VH: QQLEQSGGGLVKPGGSLELCCIASGFDFSTYWMTWVRQAPGKGLEWIGCIHGGGSGTTSYASWVNGRFTLSRDIDQSTGCLQLTSLTAADTAMYYCARPGYRSWSKTFDLWGQGTMVTVSS VL: DIQMTQSPSSLSASVGDRVTITCQANQDISNALNWYQQKPGKAPKLLIYAASSLQSGVPSRFSGSGSGTDFTLTISSLQPEDFAAYYCQQAASFPLTFGGGTKVEIK | 1.6 |
| anti-NKG2D antibody clone 296 (antibody, V domains shown, From transgenic rabbits) VH: EVQLLESGGGLVQPGGSLRLSCAASGFTFSSYAMSWVRQAPGKGLEWVSAIGIGGGGTYYADSVKGRFTISRDNSKNTLYLQMNSLRAEDTAVYHCAKGASFDFINFFPYWGQGTLVTVSS VL: DIQMTQSPSSLSASVGDRVTITCRASQGISNDLAWYQQKPGKAPKLLIYAASSLQSGVPSRFSGSGSGTDFTLTISSLQPEDFATYYCQQTYSTPLTFGGGTKVEIK | 0.9 |

Prompt: Item anti-NKG2D antibody clone 395 (antibody, V domains shown, From transgenic rabbits; rabbit VH, human VL) VH: QEQLEQSGGGLVTPGGSLKLCCTASGFDFNTFWMTWVRQAPGKGLEWIGCIHGGSGSRDYASWVNGRFTLSRDIDQSTACLQVNSLTAADTAMYYCARPGYRSWSKTFDLWGQGTMVTVSS VL: DIQMTQSPSSLSASVGDRVTITCRASQDISGALNWYQQKPGKAPNLLIYAASSLQSGVPSRFSGSGSGTDYTLTISSLQPEDFATYYCQQANSFPLTFGGGTKVEIK : provide OD max
Completion: 1.4

Prompt: Item anti-NKG2D antibody clone 001 (antibody, V domains shown, From transgenic rabbits) VH: QQLEQSGGGLVTPGGSLKLCCIGSGFDFNTYWMTWVRQAPGKGLEWIGCIHGGSSGSTYYASWVNGRFTLSRDIDQSTGCLQVNSLTAADTAMYYCARPGYRSWSKTFDLWGQGTMVTVSS VL: DIQMTQSPSSLSASVGDRVTITCRASQDISESLNWYQQKPGKAPKLLIYAASSLQSGVPSRFSGSGSGTDYTLTISSLQPEDFATYYCQQANSFPLTFGGGTKVEIK : provide OD max
Completion: 1.7
